# TEST_DETAILS: In vivo rat PK (CSF/plasma and brain/plasma ratio of tafamidis)
# PROTOCOL_CONDITIONS: male, Sprague-Dawley, CSF and plasma, oral dose of 2 mg/kg of tafamidis, reference, read-out: CSF to plasma ratio over 24 hrs

- SMILES_ENTRY: "O=C(O)c1ccc2nc(-c3cc(Cl)cc(Cl)c3)oc2c1"
  Kp: "~0.01"

###

# TEST_DETAILS: In vitro rat liver S9 stability assay (formation of tafamidis)
# Assay type: in vitro ADME
# PROTOCOL_CONDITIONS: rat liver S9, 1 μM test compound, 37° C.
ENDPOINT: Formation of tafamidis at 60 min

- MOLECULE: "O=C(c1ccc2nc(-c3cc(Cl)cc(Cl)c3)oc2c1)N1CC[C@H](O)[C@H](F)C1"
  MEASURED_VALUE: "A (A is <25%)"
- MOLECULE: "O=C(c1ccc2nc(-c3cc(Cl)cc(Cl)c3)oc2c1)N1CCC(F)C1 (stereo not shown)"
  MEASURED_VALUE: "A (A is <25%)"
- MOLECULE: "O=C(O[C@H]1CCCN2CCCC[C@@H]12)c1ccc2nc(-c3cc(Cl)cc(Cl)c3)oc2c1 (single isomer, unassigned)"
  MEASURED_VALUE: "A (A is <25%)"
